Entries and their measured viability, T/C follow.
- Tested on: NCI-H1876 complex spheroid growth, % test/control
- ASSAY NOTES: Anticancer human tumor NCI-H1876 cell line growth inhibition [Asc];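 note: compound exposure lasted 7 days starting three days after seeding; 100% = DMSO vehicle control wells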
- PROTOCOL CONDITIONS: second compound 0.3 µM; first compound 0.00316 µM; stronger effect = lower value

- COMPOUND: "CCN1CCN(Cc2ccc(Nc3ncc(F)c(-c4cc(F)c5nc(C)n(C(C)C)c5c4)n3)nc2)CC1 + CCN1C(C(=O)NC23CCC(C(=O)O)(CC2)CC3)C(c2cccc(Cl)c2F)C2(C(=O)Nc3cc(Cl)ccc32)C12CCCCC2"
  SYSTEM: "NCI-H1876 complex spheroid growth, % test/control"
  viability, T/C: "103%"

The record that follows has no viability, T/C shown yet.
Quick check: viability, T/C of CNC(C)C(=O)NC1CN(S(=O)(=O)c2cccc(S(=O)(=O)N3CCC4CCC(C(=O)NC(c5ccccc5)c5ccccc5)N4C(=O)C(NC(=O)C(C)NC)C3)c2)CCC2CCC(C(=O)NC(c3ccccc3)c3ccccc3)N2C1=O (stereo unspecified) + CCN1C(C(=O)NC23CCC(C(=O)O)(CC2)CC3)C(c2cccc(Cl)c2F)C2(C(=O)Nc3cc(Cl)ccc32)C12CCCCC2 ? 103%

----------
- Tested on: NCI-H1876 complex spheroid growth, % test/control
- ASSAY NOTES: Anticancer human tumor NCI-H1876 cell line growth inhibition [Asc];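 note: compound exposure lasted 7 days starting three days after seeding; 100% = DMSO vehicle control wells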
- PROTOCOL CONDITIONS: second compound 0.00316 µM; first compound 0.1 µM; stronger effect = lower value
READOUT LABEL: viability, T/C (%)
Give just the numeric value; % need not be written.

Here are 8 compounds together with their reported answers.
- COMPOUND: "C=CC(=O)N1CCN(c2nc(=O)n(-c3c(C)ccnc3C(C)C)c3nc(-c4c(O)cccc4F)c(F)cc23)C(C)C1 (centres undefined) + CNC(C)C(=O)NC1CN(S(=O)(=O)c2cccc(S(=O)(=O)N3CCC4CCC(C(=O)NC(c5ccccc5)c5ccccc5)N4C(=O)C(NC(=O)C(C)NC)C3)c2)CCC2CCC(C(=O)NC(c3ccccc3)c3ccccc3)N2C1=O"
  UNIT INFO: "%"
  viability, T/C: 87.6
- COMPOUND: "C=C(F)C(=O)N1CCN(c2nc(OCC3CCCN3C)nc3c2CCN(c2cccc4cccc(Cl)c24)C3)CC1CC#N (centres undefined) + CNC(C)C(=O)NC1CN(S(=O)(=O)c2cccc(S(=O)(=O)N3CCC4CCC(C(=O)NC(c5ccccc5)c5ccccc5)N4C(=O)C(NC(=O)C(C)NC)C3)c2)CCC2CCC(C(=O)NC(c3ccccc3)c3ccccc3)N2C1=O"
  UNIT INFO: "%"
  viability, T/C: 97.3
- COMPOUND: "NC1CCC(NC2CC2c2ccccc2)CC1 (centres undefined) + CNC(C)C(=O)NC1CN(S(=O)(=O)c2cccc(S(=O)(=O)N3CCC4CCC(C(=O)NC(c5ccccc5)c5ccccc5)N4C(=O)C(NC(=O)C(C)NC)C3)c2)CCC2CCC(C(=O)NC(c3ccccc3)c3ccccc3)N2C1=O"
  UNIT INFO: "%"
  viability, T/C: 119
- COMPOUND: "COc1c(OCCCN2CCOCC2)ccc2c3n(c(=NC(=O)c4cnc(N)nc4)nc12)CCN3 + CNC(C)C(=O)NC1CN(S(=O)(=O)c2cccc(S(=O)(=O)N3CCC4CCC(C(=O)NC(c5ccccc5)c5ccccc5)N4C(=O)C(NC(=O)C(C)NC)C3)c2)CCC2CCC(C(=O)NC(c3ccccc3)c3ccccc3)N2C1=O"
  UNIT INFO: "%"
  viability, T/C: 81.5
- COMPOUND: "Cn1ncnc1[C@H]1c2n[nH]c(=O)c3cc(F)cc(c23)N[C@@H]1c1ccc(F)cc1 + CNC(C)C(=O)NC1CN(S(=O)(=O)c2cccc(S(=O)(=O)N3CCC4CCC(C(=O)NC(c5ccccc5)c5ccccc5)N4C(=O)C(NC(=O)C(C)NC)C3)c2)CCC2CCC(C(=O)NC(c3ccccc3)c3ccccc3)N2C1=O"
  UNIT INFO: "%"
  viability, T/C: 54.3
- COMPOUND: "C#Cc1c(F)ccc2cc(O)cc(-c3ncc4c(N5CC6CCC(C5)N6)nc(OCC56CCCN5CC(F)C6)nc4c3F)c12 (centres undefined) + CNC(C)C(=O)NC1CN(S(=O)(=O)c2cccc(S(=O)(=O)N3CCC4CCC(C(=O)NC(c5ccccc5)c5ccccc5)N4C(=O)C(NC(=O)C(C)NC)C3)c2)CCC2CCC(C(=O)NC(c3ccccc3)c3ccccc3)N2C1=O"
  UNIT INFO: "%"
  viability, T/C: 88.2
- COMPOUND: "CCN1CCN(Cc2ccc(Nc3ncc(F)c(-c4cc(F)c5nc(C)n(C(C)C)c5c4)n3)nc2)CC1 + CNC(C)C(=O)NC1CN(S(=O)(=O)c2cccc(S(=O)(=O)N3CCC4CCC(C(=O)NC(c5ccccc5)c5ccccc5)N4C(=O)C(NC(=O)C(C)NC)C3)c2)CCC2CCC(C(=O)NC(c3ccccc3)c3ccccc3)N2C1=O"
  UNIT INFO: "%"
  viability, T/C: 93.9
- COMPOUND: "O=C(c1ccc(F)c(F)c1Nc1ccc(I)cc1F)N1CC(O)([C@@H]2CCCCN2)C1 + CNC(C)C(=O)NC1CN(S(=O)(=O)c2cccc(S(=O)(=O)N3CCC4CCC(C(=O)NC(c5ccccc5)c5ccccc5)N4C(=O)C(NC(=O)C(C)NC)C3)c2)CCC2CCC(C(=O)NC(c3ccccc3)c3ccccc3)N2C1=O"
  UNIT INFO: "%"
  viability, T/C: 80.5

The record that follows has no viability, T/C shown yet.
Quick check: viability, T/C of O=C(c1cc(Cc2n[nH]c(=O)c3ccccc23)ccc1F)N1CCN(C(=O)C2CC2)CC1 + CNC(C)C(=O)NC1CN(S(=O)(=O)c2cccc(S(=O)(=O)N3CCC4CCC(C(=O)NC(c5ccccc5)c5ccccc5)N4C(=O)C(NC(=O)C(C)NC)C3)c2)CCC2CCC(C(=O)NC(c3ccccc3)c3ccccc3)N2C1=O ? 61.7
